Entries annotated with measured RP-LC retention time
# test: gradient 5% acetonitrile 3 min, to 50% in 2 min, to 85% in 15 min, held 3 min, 100 µL/min
# experimental-conditions: column: Zorbax Extend-C18 2.1 x 50 mm; eluents: water / acetonitrile, 0.1% formic acid

molecule: O=S(=O)(c1cccc2cccnc12)N1CCc2nc(-c3ccc(Cl)cc3)ncc2C1
RP-LC retention time (s): 1140
--
molecule: Cc1ccc(C)c(N2CCN(S(=O)(=O)c3cc(-c4csc(C)n4)sc3C)CC2)c1
RP-LC retention time (s): 1360
--
molecule: Cc1ccc(CNC(=O)c2ccc3c(c2)CC(=O)N3C)o1
RP-LC retention time (s): 693
--
molecule: COc1ccc(N2CC(c3noc(-c4cccc(OC)c4)n3)CC2=O)cc1 (stereo not given)
RP-LC retention time (s): 922
--
molecule: Cc1nc2ccc(Cl)cn2c1[N+](=O)[O-]
RP-LC retention time (s): 820
--
molecule: Cc1ccc(S(=O)(=O)NCCn2c(C)cnc2C2CCC2)cc1F
RP-LC retention time (s): 637
--
molecule: CN(C)c1cccc(-c2nc(-c3ccc4nnn(C)c4c3)no2)c1
RP-LC retention time (s): 1070
--
molecule: CCn1nc(CNC(=O)CSc2ccncc2)c2ccccc21
RP-LC retention time (s): 598
--
molecule: COC(=O)c1cc2c(=O)n(-c3nc4ccc(OC)cc4s3)ccc2nc1C
RP-LC retention time (s): 1160
--
molecule: Cn1nc(C(=O)N2CCCC(C(=O)Nc3ccccc3)C2)c2c1CCN(C(=O)C(C)(C)C)C2 (stereo not given)
RP-LC retention time (s): 745

====

# test: gradient 5% acetonitrile 3 min, to 50% in 2 min, to 85% in 15 min, held 3 min, 100 µL/min
# experimental-conditions: column: Zorbax Extend-C18 2.1 x 50 mm; eluents: water / acetonitrile, 0.1% formic acid
Mark condition not met for RP-LC retention time values under 800 s, and condition met for everything at or above.

molecule: Cc1nnc(N2CCCC(C(=O)NCCCc3ccccc3)C2)c2nn(-c3ccccc3)c(C)c12 (configuration not stated)
group: condition not met
--
molecule: Cc1oc(C2CCN(C(=O)Cc3c(F)cccc3Cl)CC2)nc1C(=O)N1CCCCC1
group: condition met
--
molecule: CC(C)c1ccc(-c2cc3c4nn(CC(=O)NC5CCCC5)c(=O)n4ccn3n2)cc1
group: condition met
--
molecule: COc1ccc(-n2c(=O)c3sccc3n(Cc3nc(-c4ccccc4)no3)c2=O)cc1
group: condition met
--
molecule: COCCn1c(=O)c2c(nc3n2CCCN3c2ccccc2)n(C)c1=O
group: condition not met
--
molecule: Cn1nc(C(=O)N2CCCC(C(=O)NC3CC3)C2)c2c1CCN(C(=O)COc1ccccc1)C2 (configuration not stated)
group: condition not met
--
molecule: Cc1cc(C)c(S(=O)(=O)N2CCc3c(c(CN4CCCC4)nn3C)C2)c(C)c1
group: condition not met
--
molecule: CN(C)C(=O)c1cccnc1OC1CCN(C(=O)c2cccc(Br)c2)C1 (configuration not stated)
group: condition not met
--
molecule: Cn1cc(CCN2CCC(C(=O)NCc3ccc(F)cc3)CC2)c2cccnc21
group: condition not met
--
molecule: CCOc1ccc(N2C(=O)C3N=NN(Cc4nc(-c5ccc(Br)cc5)no4)C3C2=O)cc1 (configuration not stated)
group: condition met
--
molecule: Cc1cc(N2CCCC2)n2nc(CN3CCCCC3C)nc2n1 (configuration not stated)
group: condition not met
--
molecule: CCc1nnc(-c2ccc3ccn(CC(=O)Nc4cc(F)ccc4F)c3c2)o1
group: condition met
--
molecule: CCOc1ccc2ncc(S(=O)(=O)c3ccc(OC)cc3)c(N3CCN(CC)CC3)c2c1
group: condition not met
--
molecule: COc1ccc(-c2ncccc2CNC(=O)C2CC2)cc1
group: condition not met
--
molecule: CC(C)Cn1c(=O)c(C(=O)NCc2cccnc2)nc2cccnc21
group: condition not met
--
molecule: Cc1cc(C)cc(-c2nc(C3CC(=O)N(c4ccc(Cl)cc4)C3)no2)c1 (configuration not stated)
group: condition met
--
molecule: Cc1cccc(NC(=O)CN2C(=O)CCS(=O)(=O)c3ccccc32)c1
group: condition not met
--
molecule: COCCNC(=O)N1CCCN(C2=NS(=O)(=O)C(c3ccc(C)cc3)=C2C)CC1
group: condition not met
--
molecule: CCOc1nc2ccccc2nc1N1CCCC(C(=O)NC2CCCCCC2)C1 (configuration not stated)
group: condition met
--
molecule: CC(C)c1ccc(C(=O)N2CCC(COc3ccc(C(=O)NC4CC4)cc3)CC2)cc1
group: condition met
--
molecule: COC(=O)c1c(C)[nH]c(C(=O)N2CCC(CC(=O)N3CCN(c4ccc(OC)cc4)CC3)CC2)c1C
group: condition not met
--
molecule: Cc1cc(C)cc(NC(=O)C2CCCN(c3ccc4cc(S(=O)(=O)N5CCCC5)ccc4n3)C2)c1 (configuration not stated)
group: condition met
--
molecule: Cc1nc(CCNC(=O)[C@H]2CCCN2C(=O)c2ccc(Cl)cc2)cs1
group: condition not met
--
molecule: Cc1cc(C)cc(NC(=O)Cn2nc3n(c2=O)CCCCC3)c1
group: condition not met
--
molecule: CC(NC(=O)Nc1ccccc1)C(c1ccccc1)N1CCN(C)CC1 (configuration not stated)
group: condition not met
--
molecule: c1ccc2c(CCNc3nc(N4CCCC4)c4n[nH]nc4n3)c[nH]c2c1
group: condition not met
--
molecule: Cn1cc(CC(=O)NCc2nc(-c3ccccc3)no2)c2ccccc21
group: condition met
--
molecule: O=C(c1ccc(Cl)cc1)N1CCCCC(Sc2ncnc3sccc23)C1=O (configuration not stated)
group: condition met
--
molecule: CCOC(=O)c1ccc(N2C=C(C#N)S(=O)(=O)c3ccc(C)cc32)cc1
group: condition met
--
molecule: COc1ccc(Cl)cc1NC(=O)C1CCCN(C(=O)c2cc(-c3ccccn3)n[nH]2)C1 (configuration not stated)
group: condition not met
--
molecule: O=C(NCCc1ccco1)c1ccc2ccnc(N3CCN(c4ccc(Cl)cc4)CC3)c2c1
group: condition met
--
molecule: CC(C)(CO)c1cc2cc(NC(=O)C3(c4ccc5c(c4)OC(F)(F)O5)CC3)c(F)cc2n1C[C@@H](O)CO
group: condition met
--
molecule: COc1ccc(NS(=O)(=O)c2c(C)nn(-c3ccc(-c4ccc(C)c(C)c4)nn3)c2C)cc1OC
group: condition met
--
molecule: CC1CC=C(O)C12OCC(C)(C)CO2 (configuration not stated)
group: condition not met
--
molecule: O=C(Nc1ccc2c(c1)N(S(=O)(=O)c1ccccc1)CCC2)c1ccccc1[N+](=O)[O-]
group: condition met
--
molecule: O=C(Nc1ccc2c(c1)OCO2)N1CCN(c2nc3ccccc3n(Cc3ccccc3)c2=O)CC1
group: condition met

====

Entries annotated with measured RP-LC retention time
# test: gradient 5% acetonitrile 3 min, to 50% in 2 min, to 85% in 15 min, held 3 min, 100 µL/min
# experimental-conditions: column: Zorbax Extend-C18 2.1 x 50 mm; eluents: water / acetonitrile, 0.1% formic acid

smiles-record: Cn1cnc2cc(-c3noc(CNC(=O)c4ccccc4)n3)ccc21
u: s
RP-LC retention time: 614
--
smiles-record: CC(=O)Nc1cccc2c(C(=O)N3CCN(c4cccc(Cl)c4)CC3)ccnc12
u: s
RP-LC retention time: 920
--
smiles-record: O=C(Nc1ccccc1F)N1CC(Oc2ccc(-c3nc(-c4ccccc4)no3)cc2)C1
u: s
RP-LC retention time: 1130
--
smiles-record: Cn1cc(-c2cc3n(n2)CCCN3C(=O)CCC(=O)N2CCCCCC2)c2ccccc21
u: s
RP-LC retention time: 837
--
smiles-record: COc1ccc(Cn2c(=O)c3ccnn3c3ccc(C(=O)O)cc32)cc1
u: s
RP-LC retention time: 777

====

Entries annotated with measured RP-LC retention time
# test: gradient 5% acetonitrile 3 min, to 50% in 2 min, to 85% in 15 min, held 3 min, 100 µL/min
# experimental-conditions: column: Zorbax Extend-C18 2.1 x 50 mm; eluents: water / acetonitrile, 0.1% formic acid

compound: Cc1noc(C)c1C1CCCN1C(=O)Cc1ccccc1F (stereo not given)
u: s
RP-LC retention time: 736
//
compound: COc1ccc(-n2ccn3c(CCC(=O)NCCc4c[nH]c5ccccc45)nnc3c2=O)cc1
u: s
RP-LC retention time: 704
//
compound: CN(C)C(=O)c1cc2c(s1)CCC(C(=O)NCc1ccc(N3CCOCC3)cc1)C2 (stereo not given)
u: s
RP-LC retention time: 655
//
compound: CC(C)CNC(=O)N1CCN(c2nc3ccccc3n(Cc3ccccc3)c2=O)CC1
u: s
RP-LC retention time: 986
//
compound: Cc1ccc(C)c(-c2coc(-c3ccc(N)cc3)n2)c1
u: s
RP-LC retention time: 1060
//
compound: CCc1ccc(N2CC(c3noc(-c4cc(OC)c(OC)c(OC)c4)n3)CC2=O)cc1 (stereo not given)
u: s
RP-LC retention time: 927
//
compound: COCCNC(=O)c1ccccc1Sc1nccnc1Oc1ccccc1
u: s
RP-LC retention time: 852
//
compound: CCN(CC)CCNc1ccc(CO)c2sc3ccccc3c(=O)c12
u: s
RP-LC retention time: 646
//
compound: CC(=O)NCc1csc(C2CCN(C(=O)COc3ccc(F)cc3)CC2)n1
u: s
RP-LC retention time: 662
//
compound: O=C(Nc1ccc2c(c1)OCCO2)N1CCc2nc(-c3ccc(F)cc3)ncc2C1
u: s
RP-LC retention time: 898
//
compound: Cc1ccc(N2CC(c3noc(-c4ccc(-c5ccccc5)cc4)n3)CC2=O)cc1 (stereo not given)
u: s
RP-LC retention time: 1180
//
compound: COc1cc(Cl)ccc1C(=O)N1CCC(OC2CCN(C)CC2)CC1
u: s
RP-LC retention time: 606
//
compound: O=C(Cn1cnc2nc(N3CCC(C(=O)NC4CC4)CC3)sc2c1=O)NC1CCc2ccccc21 (stereo not given)
u: s
RP-LC retention time: 670
//
compound: CC(C)Cn1c(=O)c(N2CCN(C(=O)NCc3ccco3)CC2)nc2ccncc21
u: s
RP-LC retention time: 616
//
compound: O=C(Cn1c(N2CCCCC2)nc2ccccc2c1=O)N1CCN(c2ccccc2)CC1
u: s
RP-LC retention time: 976
//
compound: Cc1ccc(-c2nnc(Cc3nc(-c4cccc(Cl)c4)no3)o2)cc1C
u: s
RP-LC retention time: 1230
//
compound: COc1ccc(-c2cc3c(=O)n(Cc4noc(CN5CCCC5)n4)ccn3n2)cc1
u: s
RP-LC retention time: 646
//
compound: Cc1ccc(CC(=O)NC2CCN(c3ccc(F)cc3)C2=O)cc1 (stereo not given)
u: s
RP-LC retention time: 828
//
compound: CC(=O)N1c2ccc(S(=O)(=O)N3CCCCCC3)cc2CC1C(=O)NCc1ccc(Cl)cc1 (stereo not given)
u: s
RP-LC retention time: 951
//
compound: CC(=O)Nc1nsc(N2CCC(C(=O)NCc3ccccc3F)CC2)n1
u: s
RP-LC retention time: 659
